protein stability index values for the variants below.
B1: KCNG1 (parent)
chain: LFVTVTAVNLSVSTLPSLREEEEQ

Variants of: B1
Experiment: protein stability index of a GFP-peptide fusion (GPS, HEK-293T) (PSI 1-6); higher = more stable;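 also: lentivirally expressed fusions sorted by FACS into six bins by GFP to DsRed ratio, PSI derived from sequencing read proportions per bin multiplied by bin number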
Settings: c terminus: a fixed tail appended
OBSERVATION TYPE: protein stability index

>  <SEQUENCE CHANGE>
E23C

>  <NUMERIC VALUE>
2.7

$$$$
>  <SEQUENCE CHANGE>
L1K

>  <NUMERIC VALUE>
3.84

$$$$
>  <SEQUENCE CHANGE>
L1E

>  <NUMERIC VALUE>
4.32

$$$$
>  <SEQUENCE CHANGE>
V5F

>  <NUMERIC VALUE>
2.68

$$$$
>  <SEQUENCE CHANGE>
S17Y

>  <NUMERIC VALUE>
1.51

$$$$
>  <SEQUENCE CHANGE>
V8N

>  <NUMERIC VALUE>
2.49

$$$$
>  <SEQUENCE CHANGE>
A7M

>  <NUMERIC VALUE>
2.03

$$$$
>  <SEQUENCE CHANGE>
T6L

>  <NUMERIC VALUE>
1.25

$$$$
>  <SEQUENCE CHANGE>
V5A

>  <NUMERIC VALUE>
2.42

$$$$
>  <SEQUENCE CHANGE>
T6E

>  <NUMERIC VALUE>
1.79

$$$$
>  <SEQUENCE CHANGE>
S13I

>  <NUMERIC VALUE>
2.89

$$$$
>  <SEQUENCE CHANGE>
L10F

>  <NUMERIC VALUE>
3.38

$$$$
>  <SEQUENCE CHANGE>
F2P

>  <NUMERIC VALUE>
4.83

$$$$
>  <SEQUENCE CHANGE>
A7P

>  <NUMERIC VALUE>
1.8

$$$$
>  <SEQUENCE CHANGE>
E21N

>  <NUMERIC VALUE>
3.49

$$$$
>  <SEQUENCE CHANGE>
E20C

>  <NUMERIC VALUE>
3.25

$$$$
>  <SEQUENCE CHANGE>
R19K

>  <NUMERIC VALUE>
3.36

$$$$
>  <SEQUENCE CHANGE>
V3I

>  <NUMERIC VALUE>
2.67

$$$$
>  <SEQUENCE CHANGE>
V5C

>  <NUMERIC VALUE>
2.1

$$$$
>  <SEQUENCE CHANGE>
A7I

>  <NUMERIC VALUE>
4.2

$$$$
>  <SEQUENCE CHANGE>
S11Y

>  <NUMERIC VALUE>
4.29

$$$$
>  <SEQUENCE CHANGE>
N9Y

>  <NUMERIC VALUE>
2.02

$$$$
